Numbers sourced from the kinase profiling compilation of Christmann-Franck et al. (2016).

assayedTarget: NEK4 (human) (UniProt P51957)
Sequence (P51957 whole entry, looked up): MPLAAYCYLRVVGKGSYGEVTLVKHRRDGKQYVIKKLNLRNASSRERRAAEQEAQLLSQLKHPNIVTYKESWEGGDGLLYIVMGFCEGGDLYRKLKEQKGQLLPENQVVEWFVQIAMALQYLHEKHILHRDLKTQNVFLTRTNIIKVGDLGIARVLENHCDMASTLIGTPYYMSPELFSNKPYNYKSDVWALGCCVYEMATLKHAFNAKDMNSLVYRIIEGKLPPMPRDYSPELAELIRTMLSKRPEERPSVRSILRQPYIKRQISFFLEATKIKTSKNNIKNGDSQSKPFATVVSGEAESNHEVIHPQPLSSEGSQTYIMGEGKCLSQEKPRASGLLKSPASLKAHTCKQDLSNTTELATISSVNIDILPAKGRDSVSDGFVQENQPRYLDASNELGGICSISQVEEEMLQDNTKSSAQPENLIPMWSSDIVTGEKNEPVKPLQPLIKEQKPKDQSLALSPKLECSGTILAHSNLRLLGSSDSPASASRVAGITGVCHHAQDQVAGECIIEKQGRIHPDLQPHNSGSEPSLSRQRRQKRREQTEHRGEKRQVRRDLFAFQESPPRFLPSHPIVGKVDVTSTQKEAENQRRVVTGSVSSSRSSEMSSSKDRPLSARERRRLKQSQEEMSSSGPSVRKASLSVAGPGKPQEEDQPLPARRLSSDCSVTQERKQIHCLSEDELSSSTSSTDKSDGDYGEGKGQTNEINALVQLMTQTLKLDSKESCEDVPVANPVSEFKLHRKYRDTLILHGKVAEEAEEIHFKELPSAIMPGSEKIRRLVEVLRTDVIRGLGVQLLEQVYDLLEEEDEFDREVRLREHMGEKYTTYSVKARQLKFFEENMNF
runDescription: radiometric filter-binding kinase assay, Kinase HotSpot
settings: compound 0.5 µM; ATP 10 µM
measuredMetric: residual activity (%)
Supply the numeric figure in %, leaving out any unit text.

q: Given the entry COc1cc2c(Nc3ccc(Br)cc3F)ncnc2cc1OCC1CCN(C)CC1 , report its measured residual activity.
a: 102

q: What value of residual activity has been reported for the following compound? Cc1cc(Nc2nc(-c3ccccc3)nc3ccccc23)n[nH]1
a: 95

q: Need residual activity of N#CCCc1ccc2c(c1)-c1[nH]c3ccc([N+](=O)[O-])cc3c1CC(=O)N2 , thanks.
a: 104

q: Entry CN[C@@H]1C[C@H]2O[C@@](C)([C@@H]1OC)n1c3ccccc3c3c4c(c5c6ccccc6n2c5c31)C(=O)NC4 : reported residual activity = ?
a: 46.8

q: Item under review: Nc1ncnc2c1cnn2-c1ccccc1 . Reported residual activity?
a: 98.7

q: What value of residual activity has been reported for the following compound? O=S(=O)(NCCNC/C=C/c1ccc(Br)cc1)c1cccc2cnccc12
a: 96.9

q: // query residual activity value for entry COc1cc2c(cc1OC)-c1[nH]nc(Nc3cccc(F)c3)c1C2
a: 101

q: Please give the measured residual activity for this compound: COc1cc2c(N3CCN(C(=O)Nc4ccc(OC(C)C)cc4)CC3)ncnc2cc1OCCCN1CCCCC1
a: 90.3

q: Any idea what its residual activity is? The compound is N#C/C(=C1/Nc2ccccc2S1)c1ccnc(NCCc2cccnc2)n1
a: 89.1

q: Any idea what residual activity was measured for FC(F)(F)c1ccc(/C=C/c2nc(COc3ccc(CCCCn4ccnn4)cc3)co2)cc1 ?
a: 90

----------
assayedTarget: CAMKK2 (human) (UniProt Q96RR4)
Sequence (Q96RR4 whole entry, looked up): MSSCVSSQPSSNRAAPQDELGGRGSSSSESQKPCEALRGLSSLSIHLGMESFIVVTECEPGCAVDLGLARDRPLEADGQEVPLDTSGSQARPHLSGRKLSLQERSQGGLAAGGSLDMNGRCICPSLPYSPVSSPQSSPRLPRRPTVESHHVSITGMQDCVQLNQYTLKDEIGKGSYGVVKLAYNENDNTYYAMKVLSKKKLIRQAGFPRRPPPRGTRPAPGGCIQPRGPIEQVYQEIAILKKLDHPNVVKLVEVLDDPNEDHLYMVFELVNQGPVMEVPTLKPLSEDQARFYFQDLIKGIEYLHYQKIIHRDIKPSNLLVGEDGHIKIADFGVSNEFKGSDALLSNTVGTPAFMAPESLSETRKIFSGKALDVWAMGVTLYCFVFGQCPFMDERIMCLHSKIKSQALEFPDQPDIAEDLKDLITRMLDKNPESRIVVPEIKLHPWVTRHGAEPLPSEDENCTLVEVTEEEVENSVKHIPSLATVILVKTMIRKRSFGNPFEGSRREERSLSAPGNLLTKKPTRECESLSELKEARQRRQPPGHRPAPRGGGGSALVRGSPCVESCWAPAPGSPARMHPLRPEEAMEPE
runDescription: radiometric filter-binding kinase assay, Kinase HotSpot
settings: compound 0.5 µM; ATP 10 µM
Assignment: determine reported residual activity for the given compounds.
All answers are understood in %, so give the number only.

q: What residual activity appears in the records for this compound with CAMKK2 (human) (UniProt Q96RR4)? O=C1NC(=O)c2cc(Nc3ccc(F)cc3)c(Nc3ccc(F)cc3)cc21
a: 88.3

q: Short answer please: residual activity, CAMKK2 (human) (UniProt Q96RR4), entry c1ccc(-c2cnc(Nc3ccc(OCCN4CCCC4)cc3)s2)cc1
a: 89.4

q: Any idea what residual activity came out for O=c1c2ccccc2[nH]c(=S)n1CCN1CCC(=C(c2ccc(F)cc2)c2ccc(F)cc2)CC1 on CAMKK2 (human) (UniProt Q96RR4)?
a: 100

q: Record lookup: for CAMKK2 (human) (UniProt Q96RR4), what residual activity belongs to CCCCc1c(-c2ccc(O)cc2)[nH]c2nccnc12 ?
a: 91.7

q: Lookup: residual activity / CAMKK2 (human) (UniProt Q96RR4) / O=S(=O)(NCCNC/C=C/c1ccc(Br)cc1)c1cccc2cnccc12
a: 95.6

q: Give residual activity (CAMKK2 (human) (UniProt Q96RR4)) of the following compound: CCc1nc(-c2ccc(OC)cc2)[nH]c1-c1ccncc1
a: 109

q: For CAMKK2 (human) (UniProt Q96RR4), provide residual activity of COc1cccc(-c2cc(=O)c3ccccc3o2)c1N please.
a: 92.5

q: Find the measured residual activity: item N#Cc1c(NC(=O)c2cccc3ccccc23)sc2c1CCCC2 , target or system CAMKK2 (human) (UniProt Q96RR4).
a: 80.4

q: Recall the recorded residual activity for Cc1cc(Nc2nc(-c3ccccc3)nc3ccccc23)n[nH]1 with CAMKK2 (human) (UniProt Q96RR4) and state it.
a: 88.6

q: Param readout = residual activity; param system = CAMKK2 (human) (UniProt Q96RR4); param query = Cn1cc(/C=C2\C(=O)Nc3ccc(S(N)(=O)=O)cc32)c2ccccc21 ; response: value
a: 34.4
